- experimentalDetails: Human HepG2 cell viability assay in 384 well format
- Assay type: toxicity, cell-based
- Set-up: dose 125 nL, time 70.5 hour; concentration not given beside the values
- testParameters: HepG2 cells, read-out: Inhibition
Entries annotated with measured cytotoxicity at 70.5 h

compound: CCS(=O)(=O)N1CCC(Nc2c(F)cc(C#N)cc2F)CC1
cytotoxicity at 70.5 h, %: -9.63
--
compound: CCN1CCCC(c2c(-c3ccccc3)ncn2CC(N)=O)C1 (configuration not stated)
cytotoxicity at 70.5 h, %: -0.352
--
compound: O=C1CC2(CCN(CC3CC3)C2)CN1c1cccnc1 (configuration not stated)
cytotoxicity at 70.5 h, %: -9.06
--
compound: CCC(CNC(=O)c1cncc(Br)c1)N1CCc2ccccc2C1 (configuration not stated)
cytotoxicity at 70.5 h, %: -5.93
--
compound: FC(F)(F)Oc1ccc(-c2noc([C@@H]3Cc4nc[nH]c4CN3)n2)cc1
cytotoxicity at 70.5 h, %: -4.51
--
compound: FC1(F)CCN(Cc2ccncc2)CC12CCN(Cc1ccccn1)C2 (configuration not stated)
cytotoxicity at 70.5 h, %: 14.3
--
compound: CCN1C(=O)[C@H]2CN(Cc3cccnc3)C[C@H]2C12CCN(C(C)=O)CC2
cytotoxicity at 70.5 h, %: -10.7
--
compound: CC(C)Nc1ncc(CN2C[C@@H](CN3CCC(O)CC3)[C@@H](CO)C2)cn1
cytotoxicity at 70.5 h, %: -3.95
--
compound: Cc1cc(F)c(S(=O)(=O)NCc2ccnc(N(C)C)n2)cc1F
cytotoxicity at 70.5 h, %: 29.1
--
compound: CC(=O)N[C@@H]1CN(C(=O)c2cccc(C)c2)C[C@H]1O
cytotoxicity at 70.5 h, %: -8.6
--
compound: O=C(c1ccsc1)N1C[C@H]2CCC[C@@]2(COCc2cccnc2)C1
cytotoxicity at 70.5 h, %: 22.5
--
compound: COc1cccc2c1OCC(C(=O)NCc1c(C)noc1C)C2 (configuration not stated)
cytotoxicity at 70.5 h, %: -7.18
